Readings of activation for the listed compounds
TARGET UNDER TEST: Aryl hydrocarbon receptor (Homo sapiens) (UniProt P35869)
Sequence (P35869 whole entry, looked up): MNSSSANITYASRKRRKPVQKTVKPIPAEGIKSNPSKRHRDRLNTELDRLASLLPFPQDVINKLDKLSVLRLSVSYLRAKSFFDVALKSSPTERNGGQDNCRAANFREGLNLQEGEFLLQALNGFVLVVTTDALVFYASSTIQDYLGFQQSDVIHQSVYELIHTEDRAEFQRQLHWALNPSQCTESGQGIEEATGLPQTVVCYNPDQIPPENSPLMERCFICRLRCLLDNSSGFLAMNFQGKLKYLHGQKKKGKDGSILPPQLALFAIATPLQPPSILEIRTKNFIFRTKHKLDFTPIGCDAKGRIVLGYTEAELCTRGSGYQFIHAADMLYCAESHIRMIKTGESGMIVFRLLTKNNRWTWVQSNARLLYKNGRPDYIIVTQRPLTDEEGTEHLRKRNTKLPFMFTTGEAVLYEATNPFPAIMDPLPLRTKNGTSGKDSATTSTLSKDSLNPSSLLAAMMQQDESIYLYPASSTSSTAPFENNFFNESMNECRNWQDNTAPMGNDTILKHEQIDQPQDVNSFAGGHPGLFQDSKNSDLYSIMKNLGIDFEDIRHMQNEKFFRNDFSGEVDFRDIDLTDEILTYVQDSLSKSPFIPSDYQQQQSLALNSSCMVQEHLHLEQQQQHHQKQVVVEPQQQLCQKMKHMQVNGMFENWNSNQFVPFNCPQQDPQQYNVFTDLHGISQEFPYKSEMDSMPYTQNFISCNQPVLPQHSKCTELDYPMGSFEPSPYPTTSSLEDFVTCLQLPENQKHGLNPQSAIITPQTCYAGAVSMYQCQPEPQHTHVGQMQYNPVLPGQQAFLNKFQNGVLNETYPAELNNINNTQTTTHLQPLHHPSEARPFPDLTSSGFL
EXPERIMENTAL PROTOCOL: AHR activators, primary screen, cell-based, luminescence, luciferase reporter, human (AID 2796);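 further: 0% = vehicle wells and 100% = reference agonist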
MEASUREMENT CONTEXT: AHR-responsive luciferase reporter cells, at 5 µM, active compounds read high
Hit rate of the full screen: of about 320,000 compounds, about 8,000 (2.5%) were called active. The list comes from a sample in which actives are over-represented; it also holds close analogues and randomly drawn compounds.

COMPOUND: COc1ccccc1NC(=O)C1=C(C)NC(=O)NC1c1ccc(C)s1 (stereo not drawn)
activation (%): 5.73

COMPOUND: COc1ccc2sc(-c3ccc(N(C)C)cc3)c(C#CCO)c2c1
activation (%): 64.8

COMPOUND: Cc1cccc(COc2ccccc2/C=N/Nc2ccc([N+](=O)[O-])cc2)c1
activation (%): 50.4

COMPOUND: CC(Sc1sc(=S)sc1SC(C)C(=O)O)C(=O)O (stereo not drawn)
activation (%): 4.16

COMPOUND: Cc1nc(SCC(=O)NC2CCCCC2C)c(C#N)c(C)c1C (stereo not drawn)
activation (%): -1.86

COMPOUND: Cc1ccc(SCC2=NNC(=O)C2)cc1
activation (%): -1.28

COMPOUND: O=S(=O)(O)Oc1c[nH]c2ccccc12
activation (%): 66.7

COMPOUND: O=C(NC1CCCC1)C(=O)c1c[nH]c2ccccc12
activation (%): -1.15

COMPOUND: O=C1C2C3C=CC(C4CC34)C2C(=O)N1c1nccs1 (stereo not drawn)
activation (%): 0.87

COMPOUND: N/C(=N\OS(=O)(=O)c1cccc([N+](=O)[O-])c1)c1ccncc1
activation (%): 0.65

COMPOUND: CC(C)[C@H](NC(=O)N1CC(=O)Nc2ccccc21)C(=O)N[C@@H](Cc1c[nH]c2ccccc12)C(=O)O
activation (%): 10.6

COMPOUND: O=C(Nc1ccc2oc(-c3ccc4ccccc4c3)nc2c1)c1cccs1
activation (%): 33.5

COMPOUND: CCOc1ccccc1NC(=O)c1cccnc1
activation (%): 93.9

COMPOUND: COc1ccccc1NC(=O)[C@H](COCc1ccccc1)NC(=O)OC(C)(C)C
activation (%): 13.7

COMPOUND: CCOC(=O)/C=C/CN(C(=O)OC(C)(C)C)S(=O)(=O)N1CC=CC1
activation (%): -1.1

COMPOUND: Cc1ccc2c(N)c(C(=O)c3ccccc3)sc2n1
activation (%): 46.1

COMPOUND: COc1ccc2sc(-c3ccc(S(C)(=O)=O)cc3)c(C#Cc3cncn3C)c2c1
activation (%): 39.3

COMPOUND: COc1ccccc1NC(=O)C1=C(C)Nc2ncnn2C1c1ccc(C)o1 (stereo not drawn)
activation (%): 13.1

COMPOUND: COc1ccc(N2CCN(C(=O)Cn3cnc4sc(C)c(S(=O)(=O)N5CCOCC5)c4c3=O)CC2)cc1
activation (%): -4.91

COMPOUND: CCOc1ccccc1NC(=O)Nc1cc(OC)ccc1OC
activation (%): 71

COMPOUND: COc1ccc2sc(-c3ccccc3OC)c(-c3ccc(OCCN4CCCC4)cc3)c2c1
activation (%): 1.65

COMPOUND: COc1ccc2sc(-c3ccc(N(C)C)cc3)c(-c3ccc4cc[nH]c4c3)c2c1
activation (%): 22.1

COMPOUND: CCc1nn(CCCC(=O)Nc2ccc(C)c(C)c2)c(=O)c2cc3occc3n12
activation (%): 4.33

// data source = PubChem BioAssay AID2796
